B1: CD2-associated protein, residues 109 to 169; numbered along this chain, Q9Y5K6 (parent)
chain: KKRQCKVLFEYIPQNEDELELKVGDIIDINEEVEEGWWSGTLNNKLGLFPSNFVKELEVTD

# Variants of: B1
# PROTOCOL SUMMARY: abundance fitness (aPCA) (normalised: wild type 0, dead -1); higher = more abundant; growth selection in yeast, the domain comes from the species named
# EXPERIMENTAL CONTEXT: Homo sapiens
Record condition met whenever abundance fitness is at -0.5 or higher; record condition not met when lower.

Task item: Could you please find out whether "G47I" has abundance fitness that meets -0.5 or exceeds it?
Reply: condition not met

Task item: Please indicate if the recorded abundance fitness for "L57A" meets or exceeds -0.5.
Reply: condition not met

Task item: Hello, I need to know if "G36Q" has measured abundance fitness not below -0.5. Thanks!
Reply: condition met

Task item: Confirm if abundance fitness reported for the variant "I27Q" is -0.5 or above.
Reply: condition not met

Task item: Has "G40W" a recorded abundance fitness greater than or equal to -0.5?
Reply: condition not met

Task item: Check this variant for abundance fitness at or above -0.5: "W37H"
Reply: condition not met

Task item: Tell me whether abundance fitness is at least -0.5 here: "N52Y"
Reply: condition met

Task item: Reported abundance fitness reaches at least -0.5 for "G47W" ?
Reply: condition not met

Task item: Is reported abundance fitness greater than or equal to -0.5 here: "F49S"
Reply: condition not met

Task item: Given the entry "E35T" , answer whether its abundance fitness meets or surpasses -0.5.
Reply: condition met

Task item: Test whether the variant "F53E" records abundance fitness of -0.5 or higher.
Reply: condition not met

Task item: abundance fitness >= -0.5 for "E32K" ?
Reply: condition met

Task item: Can "L57R" be said to have abundance fitness at or above -0.5?
Reply: condition not met

Task item: Does the reported abundance fitness for "K55C" fall at or above the -0.5 mark?
Reply: condition met

Task item: Reported abundance fitness at or above -0.5? "V54A"
Reply: condition not met

Task item: API: above_or_equal(metric=abundance fitness, cutoff=-0.5) for item "F53H"
Reply: condition met

Task item: Can "G40A" be said to have abundance fitness at or above -0.5?
Reply: condition not met

Task item: Form field: abundance fitness at least -0.5? Entry: "D61R"
Reply: condition met

Task item: Is it the case that "W38R" has abundance fitness reaching or exceeding -0.5?
Reply: condition not met

Task item: Kindly determine if abundance fitness recorded for "F53P" is above or exactly -0.5.
Reply: condition not met

Task item: Please check the record "S51F" and state if its abundance fitness is at or above -0.5.
Reply: condition met

Task item: Entry "G36K" : is its abundance fitness no less than -0.5?
Reply: condition met

Task item: Could you verify whether the entry "K55Q" shows abundance fitness of no less than -0.5?
Reply: condition met

Task item: Dear colleague, could you confirm whether "E35Y" has abundance fitness at or above -0.5?
Reply: condition met

Task item: Textbook exercise: given the entry "G36H" , state whether its abundance fitness is greater than or equal to -0.5.
Reply: condition met

Task item: Identify whether the reported abundance fitness of the following variant is -0.5 or greater: "V54L"
Reply: condition not met

Task item: Reported abundance fitness at or above -0.5? "N44R"
Reply: condition met

Task item: Record "E32R" ; criterion: abundance fitness no lower than -0.5. Met?
Reply: condition met

Task item: Hi, just wondering whether "P50A" shows abundance fitness of -0.5 or higher.
Reply: condition not met

Task item: Reported abundance fitness at or above -0.5? "N43R"
Reply: condition met

Task item: Can "K55G" be said to have abundance fitness at or above -0.5?
Reply: condition met

Task item: Entry "V54T" : is its abundance fitness no less than -0.5?
Reply: condition met

Task item: Confirm if abundance fitness reported for the variant "D61M" is -0.5 or above.
Reply: condition met

Task item: Form field: abundance fitness at least -0.5? Entry: "K45T"
Reply: condition met

Task item: Is abundance fitness at least -0.5? Consider "V54W"
Reply: condition not met

Task item: Hello, I need to know if "K45E" has measured abundance fitness not below -0.5. Thanks!
Reply: condition met

Task item: API: above_or_equal(metric=abundance fitness, cutoff=-0.5) for item "T60Q"
Reply: condition met

Task item: Hi team, for "L57Q" , is the recorded abundance fitness at or above -0.5?
Reply: condition met

Task item: Decide: is the reported value of abundance fitness for "K45S" equal to or greater than -0.5?
Reply: condition not met

Task item: Answer whether abundance fitness of "E58V" is greater than or equal to -0.5.
Reply: condition met

Task item: Confirm if abundance fitness reported for the variant "V59L" is -0.5 or above.
Reply: condition met

Task item: Exam item: decide whether the reported abundance fitness for "I29E" is at least -0.5.
Reply: condition not met

Task item: In plain terms: is recorded abundance fitness at least -0.5 for "E34Q" ?
Reply: condition met

Task item: I'd appreciate it if you could say whether "V59H" has abundance fitness at least equal to -0.5.
Reply: condition met

Task item: Determine whether this variant has abundance fitness no lower than -0.5: "D61K"
Reply: condition not met

Task item: Please indicate if the recorded abundance fitness for "V54I" meets or exceeds -0.5.
Reply: condition met

Task item: Assess whether reported abundance fitness for "T60M" sits at -0.5 or higher.
Reply: condition met

Task item: Tell me whether abundance fitness is at least -0.5 here: "V33F"
Reply: condition met

Task item: abundance fitness >= -0.5 for "V59Q" ?
Reply: condition met

Task item: Textbook exercise: given the entry "T41V" , state whether its abundance fitness is greater than or equal to -0.5.
Reply: condition met

Task item: Check the entry "I29Y" : does abundance fitness equal or exceed -0.5?
Reply: condition not met

Task item: Kindly determine if abundance fitness recorded for "I29A" is above or exactly -0.5.
Reply: condition not met

Task item: I'd appreciate it if you could say whether "D61Y" has abundance fitness at least equal to -0.5.
Reply: condition met

Task item: Please indicate if the recorded abundance fitness for "E34G" meets or exceeds -0.5.
Reply: condition met

Task item: Tell me whether abundance fitness is at least -0.5 here: "L48P"
Reply: condition met

Task item: // inclusive: abundance fitness at least -0.5? input: "E58Q"
Reply: condition met

Task item: Please indicate if the recorded abundance fitness for "E32W" meets or exceeds -0.5.
Reply: condition met

Task item: Decide: abundance fitness of "V59T" >= -0.5?
Reply: condition met

Task item: Assess whether reported abundance fitness for "L57F" sits at -0.5 or higher.
Reply: condition met

Task item: hey, is abundance fitness for this one >= -0.5? "G47K"
Reply: condition not met

Task item: Does the reported abundance fitness for "N43V" fall at or above the -0.5 mark?
Reply: condition not met

Task item: I'd appreciate it if you could say whether "K55I" has abundance fitness at least equal to -0.5.
Reply: condition met

Task item: Determine whether measured abundance fitness meets or exceeds -0.5 for "W37R"
Reply: condition met

Task item: Determine whether this variant has abundance fitness no lower than -0.5: "K45V"
Reply: condition not met

Task item: Hi, just wondering whether "G36C" shows abundance fitness of -0.5 or higher.
Reply: condition met

Task item: Could you tell me if the measured abundance fitness of "P50N" reaches -0.5 or more?
Reply: condition met

Task item: Hi team, for "L42C" , is the recorded abundance fitness at or above -0.5?
Reply: condition met

Task item: Item "E56P" with abundance fitness of -0.5 or above?
Reply: condition met

Task item: Hi team, for "L57V" , is the recorded abundance fitness at or above -0.5?
Reply: condition met

Task item: Decide: is the reported value of abundance fitness for "E31S" equal to or greater than -0.5?
Reply: condition met

Task item: Check if abundance fitness >= -0.5 (inclusive). Item: "I26H"
Reply: condition met

Task item: Exam item: decide whether the reported abundance fitness for "N44P" is at least -0.5.
Reply: condition met

Task item: Exam item: decide whether the reported abundance fitness for "I26A" is at least -0.5.
Reply: condition not met
